system: UniProt:P29274
assayMethodText: Displacement of [3H]ZM-241385 from recombinant human adenosine A2A receptor expressed in HeLa cells at 0.1 uM
quantityMeasured: inhibition (%)

>>> df
                                    molecule  quantitymeasured  observedresult
 0  COCCCn1c(=O)n(C)c(=O)c2[nH]c(-c3ccc(OCC(=O)NC4CCCC4)cc3)cc21        inhibition               0
 1  CCCn1c(=O)c2[nH]c(-c3ccc(OC(C(=O)Nc4ccc(F)cc4)c4ccccc4)cc3)cc2n(CCC)c1=O (configuration not stated)        inhibition              65
 2  CCCn1c(=O)c2[nH]c(-c3ccc(OCC(=O)Nc4cccnc4)cc3)cc2n(CCC)c1=O        inhibition              48
 3  CC(NC(=O)COc1ccc(-c2cc3c([nH]2)c(=O)n(C)c(=O)n3C)cc1)c1ccccc1 (configuration not stated)        inhibition              13
 4  Cn1c(=O)c2[nH]c(-c3ccc(OCC(=O)Nc4ccc([N+](=O)[O-])cc4)cc3)cc2n(C)c1=O        inhibition              30
 5  CCOC(=O)c1ccc(NC(=O)COc2ccc(-c3cc4c([nH]3)c(=O)n(C)c(=O)n4C)cc2OC)cc1        inhibition               0
 6  CCCn1c(=O)n(C)c(=O)c2[nH]c(-c3ccc(OCC(=O)Nc4ccc(Br)cc4)cc3)cc21        inhibition              91
 7  CCCn1c(=O)c2[nH]c(-c3ccc(OCC(=O)Nc4ccc(C(N)=O)cc4)cc3)cc2n(CCC)c1=O        inhibition              43
 8  COc1cc(-c2cc3c([nH]2)c(=O)n(C)c(=O)n3C)ccc1OCC(=O)NCc1ccc(Cl)cc1        inhibition              23
 9  CC(Oc1ccc(-c2cc3c([nH]2)c(=O)n(C)c(=O)n3C)cc1)C(=O)Nc1ccc(Br)cc1 (configuration not stated)        inhibition              77
10  CCn1c(=O)c2[nH]c(-c3ccc(OCC(=O)O)cc3)cc2n(CCCOC)c1=O        inhibition              20
11  CCCn1c(=O)c2[nH]c(-c3ccc(OC(C)(C)C(=O)O)cc3)cc2n(C)c1=O        inhibition               3

====

system: Adenosine receptor A2b (Homo sapiens) (UniProt P29275)
Sequence (P29275 whole entry): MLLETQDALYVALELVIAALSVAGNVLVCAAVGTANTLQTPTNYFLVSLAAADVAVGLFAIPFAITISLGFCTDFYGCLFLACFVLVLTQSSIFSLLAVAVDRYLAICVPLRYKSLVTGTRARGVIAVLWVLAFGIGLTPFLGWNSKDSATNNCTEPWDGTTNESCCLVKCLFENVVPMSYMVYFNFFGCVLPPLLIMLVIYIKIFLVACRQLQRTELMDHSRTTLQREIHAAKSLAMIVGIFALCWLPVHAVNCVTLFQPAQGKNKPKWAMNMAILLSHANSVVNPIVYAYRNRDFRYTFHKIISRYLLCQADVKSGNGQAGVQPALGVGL
assayMethodText: Displacement of [3H]DPCPX from recombinant human adenosine A2B receptor expressed in HEK293 cells at 0.1 uM
Assay type: cell-based
quantityMeasured: inhibition (%)

>>> df
                                    compound                                    system  quantitymeasured  observedresult
 0  CCCn1c(=O)c2[nH]c(-c3ccc(OCC(=O)NCc4ccc(F)cc4)cc3)c(Cl)c2n(CCC)c1=O  Adenosine receptor A2b (Homo sapiens) (UniProt P29275)        inhibition              25
 1  CCCn1c(=O)c2[nH]c(-c3ccc(OCC(=O)NCc4ccncc4)cc3)cc2n(CCC)c1=O  Adenosine receptor A2b (Homo sapiens) (UniProt P29275)        inhibition              76
 2  COCCCn1c(=O)c2[nH]c(-c3ccc(OCC(=O)Nc4ccc(F)cc4)cc3)cc2n(CCCOC)c1=O  Adenosine receptor A2b (Homo sapiens) (UniProt P29275)        inhibition              68
 3  CCCn1c(=O)c2[nH]c(-c3ccc(OC(C(=O)Nc4ccc(F)cc4)c4ccccc4)cc3)cc2n(CCC)c1=O (stereo not drawn)  Adenosine receptor A2b (Homo sapiens) (UniProt P29275)        inhibition              84
 4  CC(NC(=O)COc1ccc(-c2cc3c([nH]2)c(=O)n(C)c(=O)n3C)cc1)c1ccccc1 (stereo not drawn)  Adenosine receptor A2b (Homo sapiens) (UniProt P29275)        inhibition              63
 5  CCCn1c(=O)c2[nH]c(-c3ccc(OCC(=O)c4c(NC(=O)O)[nH]c(=O)n(C)c4=O)cc3)cc2n(CCC)c1=O  Adenosine receptor A2b (Homo sapiens) (UniProt P29275)        inhibition              66
 6  CCCn1c(=O)c2[nH]c(-c3ccc(OCC(=O)Nc4ccc(C(C)(C)C)cc4)cc3)cc2n(CCC)c1=O  Adenosine receptor A2b (Homo sapiens) (UniProt P29275)        inhibition              94
 7  CCCn1c(=O)c2[nH]c(-c3ccc(OCC(=O)Nc4ccc(C(F)(F)F)cc4)cc3)cc2n(CCC)c1=O  Adenosine receptor A2b (Homo sapiens) (UniProt P29275)        inhibition              85
 8  CCCn1c(=O)c2[nH]c(-c3ccc(OCC(=O)Nc4ccccc4O)cc3)cc2n(CCC)c1=O  Adenosine receptor A2b (Homo sapiens) (UniProt P29275)        inhibition              74
 9  COc1cc(-c2cc3c([nH]2)c(=O)n(C)c(=O)n3C)ccc1OCC(=O)NCc1ccc(Cl)cc1  Adenosine receptor A2b (Homo sapiens) (UniProt P29275)        inhibition              43
10  CCCn1c(=O)c2[nH]c(-c3ccc(OCC(=O)Nc4ccc(C(=O)c5ccccc5)cc4)cc3)cc2n(CCC)c1=O  Adenosine receptor A2b (Homo sapiens) (UniProt P29275)        inhibition              51
11  Cn1c(=O)c2[nH]c(-c3ccc(OCC(=O)Nc4ccc(C#N)cc4)cc3)cc2n(C)c1=O  Adenosine receptor A2b (Homo sapiens) (UniProt P29275)        inhibition              91
12  Cn1c(=O)c2[nH]c(-c3ccc(OCC(=O)Nc4ccc(F)cc4)cc3)cc2n(CCN2CCOCC2)c1=O  Adenosine receptor A2b (Homo sapiens) (UniProt P29275)        inhibition              27

====

Items are presented alongside their recorded inhibition.
system: Adenosine receptor A2a (Homo sapiens)
Sequence (P29274 whole entry): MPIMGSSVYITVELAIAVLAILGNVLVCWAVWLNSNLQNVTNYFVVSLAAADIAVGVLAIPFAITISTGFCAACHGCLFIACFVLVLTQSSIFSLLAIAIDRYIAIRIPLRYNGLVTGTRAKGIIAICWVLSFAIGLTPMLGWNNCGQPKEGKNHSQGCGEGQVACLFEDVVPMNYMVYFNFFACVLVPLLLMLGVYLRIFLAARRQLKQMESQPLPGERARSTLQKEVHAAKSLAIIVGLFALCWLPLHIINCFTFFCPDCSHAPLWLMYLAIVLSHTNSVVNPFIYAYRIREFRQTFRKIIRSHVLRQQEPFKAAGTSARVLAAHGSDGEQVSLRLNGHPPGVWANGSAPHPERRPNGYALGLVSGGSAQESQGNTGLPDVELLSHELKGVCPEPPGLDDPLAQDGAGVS
assayMethodText: Displacement of [3H]ZM-241385 from recombinant human adenosine A2A receptor expressed in HeLa cells at 0.1 uM
quantityMeasured: inhibition (%)

>>> df
                                    compound  quantitymeasured  unittag  observedresult
 0  Cn1c(=O)c2[nH]c(-c3ccc(OC(C)(C)C(=O)O)cc3)cc2n(C)c1=O        inhibition        %               2
 1  CN(Cc1ccccc1)C(=O)COc1ccc(-c2cc3c([nH]2)c(=O)n(C)c(=O)n3C)cc1        inhibition        %              14
 2  Cn1c(=O)c2[nH]c(-c3cccc(OCC(=O)O)c3)cc2n(C)c1=O        inhibition        %              15
 3  CC(Oc1ccc(-c2cc3c([nH]2)c(=O)n(C)c(=O)n3C)cc1)C(=O)Nc1ccc(F)cc1 (centres undefined)        inhibition        %              70
 4  Cn1c(=O)c2[nH]c(-c3ccc(OCC(=O)NCc4ccc(F)cc4)cc3)cc2n(C)c1=O        inhibition        %              56
 5  CCCn1c(=O)c2[nH]c(-c3ccc(OCC(=O)Nc4cnccn4)cc3)cc2n(CCC)c1=O        inhibition        %              34
 6  O=C(COc1ccc(-c2cc3c([nH]2)c(=O)n(CC(F)(F)F)c(=O)n3CC(F)(F)F)cc1)Nc1ccc(F)cc1        inhibition        %              18
 7  COCCCn1c(=O)c2[nH]c(-c3ccc(OCC(=O)Nc4ccc(Br)cc4)cc3)cc2n(CCCOC)c1=O        inhibition        %              30
 8  CCCn1c(=O)n(C)c(=O)c2[nH]c(-c3ccc(OCC(=O)N(C)Cc4ccccc4)cc3)cc21        inhibition        %              15
 9  CCCn1c(=O)c2[nH]c(-c3ccc(OC(C)C(=O)Nc4ccc(F)cc4)cc3)cc2n(CCC)c1=O (centres undefined)        inhibition        %              51
10  COCCCn1c(=O)n(C)c(=O)c2[nH]c(-c3ccc(OCC(=O)O)cc3)cc21        inhibition        %              11
11  COCCCn1c(=O)c2[nH]c(-c3ccc(OCC(=O)O)cc3)cc2n(CCCOC)c1=O        inhibition        %               9
12  O=C(COc1ccc(-c2cc3c([nH]2)c(=O)n(CC2CC2)c(=O)n3CC2CC2)cc1)Nc1ccc(F)cc1        inhibition        %              98
13  Cn1c(=O)c2[nH]c(-c3ccc(OCC(=O)Nc4ccc(F)cc4)cc3)cc2n(CCN2CCOCC2)c1=O        inhibition        %              10
